- Test system: E. coli TESEC Mtb Alr
- Assay: growth (OD600 after 10 h); higher = more growth (less inhibition)
- Protocol conditions: arabinose 1000 nM; compound 0.1 mM; raw OD600 reference: median of DMSO wells 0.294, cell-free background 0.041
Counter-ions that a name gives are not always drawn.

Compound	Measured on	growth
CNCCCC12CCC(c3ccccc31)c1ccccc12 [Maprotiline hydrochloride]	E. coli TESEC Mtb Alr	0.256
C[C@]12C=CC(=O)C=C1CC[C@@H]1[C@@H]2[C@@H](O)C[C@@]2(C)[C@H]1CC[C@]2(O)C(=O)CO	E. coli TESEC Mtb Alr	0.263
Nc1ccc(C(=O)NCC(=O)O)cc1	E. coli TESEC Mtb Alr	0.297
C[N+](C)(C)CCCCCC[N+](C)(C)C [Hexamethonium dibromide dihydrate]	E. coli TESEC Mtb Alr	0.27
O=C1OCCN1/N=C/c1ccc([N+](=O)[O-])o1	E. coli TESEC Mtb Alr	0.041
COc1ccnc(C[S+]([O-])c2nc3cc(OC(F)F)ccc3[nH]2)c1OC (stereo not drawn) [Pantoprazole sodium]	E. coli TESEC Mtb Alr	0.218
CCOc1cc(CC(=O)N[C@@H](CC(C)C)c2ccccc2N2CCCCC2)ccc1C(=O)O [Repaglinide]	E. coli TESEC Mtb Alr	0.199
CCC1(c2ccccc2)C(=O)NCNC1=O	E. coli TESEC Mtb Alr	0.296
CC(C(=O)O)c1ccc(-c2ccccc2)c(F)c1 (stereo not drawn)	E. coli TESEC Mtb Alr	0.239
COc1ccc(C(=O)NCc2cccnc2)cc1C(=O)NCc1cccnc1 [Picotamide monohydrate]	E. coli TESEC Mtb Alr	0.264
O=C(NCC(O)CO)c1c(I)c(C(=O)NCC(O)CO)c(I)c(N(CCO)C(=O)CO)c1I (stereo not drawn)	E. coli TESEC Mtb Alr	0.308
O=C(NC(Cc1cc(=O)[nH]c2ccccc12)C(=O)O)c1ccc(Cl)cc1 (stereo not drawn) [Rebamipide]	E. coli TESEC Mtb Alr	0.314
COc1ccc2cc([C@@H](C)C(=O)O)ccc2c1 [(R) -Naproxen sodium salt]	E. coli TESEC Mtb Alr	0.311
O=C1c2ccccc2S(=O)(=O)N1CCCCN1CCN(c2ncccn2)CC1	E. coli TESEC Mtb Alr	0.256
O=C1c2c(O)ccc(O)c2C(=O)c2c(NCCNCCO)ccc(NCCNCCO)c21 [Mitoxantrone dihydrochloride]	E. coli TESEC Mtb Alr	0.355
Cc1cc(=O)oc2cc(O)ccc12	E. coli TESEC Mtb Alr	0.286
CN(C)CCCOc1nn(Cc2ccccc2)c2ccccc12 [Benzydamine hydrochloride]	E. coli TESEC Mtb Alr	0.224
CC(N)CCCC(C)(C)O (stereo not drawn) [Heptaminol hydrochloride]	E. coli TESEC Mtb Alr	0.285
